assay: Metabolic stability in mouse liver microsomes assessed as parent compound remaining; assay type: ADME, microsome; also: time not given here
assay.readout: Stability (%)
State just the number; it will be interpreted in %.

These recorded examples may help you get a feel for the data.
NC/C=C/CN(C[C@H]1Cc2ccccc2CN1)[C@H]1CCCc2cccnc21; 11
N[C@H]1CC[C@@H](N(C[C@H]2Cc3ccccc3CN2)[C@H]2CCCc3cccnc32)CC1; 56
NCC1CC1CN(C[C@H]1Cc2ccccc2CN1)[C@H]1CCCc2cccnc21 (single isomer, unassigned; diastereomer 2); 4

I am curious: what Stability value has been reported for C/C(=C/CN)CN(C[C@H]1Cc2ccccc2CN1)[C@H]1CCCc2cccnc21 ?
2

What do you have for C/C(=C/CN(C[C@H]1Cc2ccccc2CN1)[C@H]1CCCc2cccnc21)CN ?
2

What do you have for C/C(CN(C[C@H]1Cc2ccccc2CN1)[C@H]1CCCc2cccnc21)=C(\F)CN ?
1

What do you have for N[C@H]1CC[C@H](CN(C[C@H]2Cc3ccccc3CN2)[C@H]2CCCc3cccnc32)CC1 ?
44

What do you have for NC[C@H]1CC[C@H](CN(C[C@H]2Cc3ccccc3CN2)[C@H]2CCCc3cccnc32)CC1 ?
92

---

biological target: Cytochrome P450 2D6 (Homo sapiens); test: Inhibition of recombinant human CYP2D6 expressed in insect microsomes using AMMC as substrate preincubated for 30 mins followed by NADPH addition measured after 45 mins by fluorescence assay
Reported IC50 by item:
State just the number; it will be interpreted in nM.

These recorded examples may help you get a feel for the data.
C/C(CN)=C(/F)CN(C[C@H]1Cc2ccccc2CN1)[C@H]1CCCc2cccnc21; 140
NC(=O)NC/C=C\CN(C[C@H]1Cc2ccccc2CN1)[C@H]1CCCc2cccnc21; 470
C/C(=C/CN)CN(C[C@H]1Cc2ccccc2CN1)[C@H]1CCCc2cccnc21; 88
N[C@H]1CC[C@H](CN(C[C@H]2Cc3ccccc3CN2)[C@H]2CCCc3cccnc32)CC1; 760
C/C(CN)=C(\F)CN(C[C@H]1Cc2ccccc2CN1)[C@H]1CCCc2cccnc21; 59
NCC1=C(CN(C[C@H]2Cc3ccccc3CN2)[C@H]2CCCc3cccnc32)CCCC1; 180

In the following, a different compound is considered.
Give IC50 (Cytochrome P450 2D6 (Homo sapiens)) of the following compound: NCC1CC1CN(C[C@H]1Cc2ccccc2CN1)[C@H]1CCCc2cccnc21 (single isomer, unassigned; diastereomer 2)
270

---

experiment: Metabolic stability in mouse liver microsomes assessed as parent compound remaining; assay type: ADME, microsome; also: time not given here
Reported Stability by item:
State just the number; it will be interpreted in %.

These recorded examples may help you get a feel for the data.
N[C@H]1CC[C@H](N(C[C@H]2Cc3ccccc3CN2)[C@H]2CCCc3cccnc32)CC1; 77
C/C(CN(C[C@H]1Cc2ccccc2CN1)[C@H]1CCCc2cccnc21)=C(/F)CN; 15
NC/C=C\CN(C[C@H]1Cc2ccccc2CN1)[C@H]1CCCc2cccnc21; 4
NC(=O)NC/C=C\CN(C[C@H]1Cc2ccccc2CN1)[C@H]1CCCc2cccnc21; 2

In the following, a different compound is considered.
I am curious: what Stability value has been reported for NCC1CC1CN(C[C@H]1Cc2ccccc2CN1)[C@H]1CCCc2cccnc21 (single isomer, unassigned; diastereomer 1) ?
1

---

Reported pIC50 by item:
target: C-X-C chemokine receptor type 4 (Homo sapiens); assay: Antagonist activity at CXCR4 in human CCRF-CEM cells assessed as inhibition of CXCL12-mediated calcium flux incubated for 25 mins followed by CXCL12 stimulation measured for 90 secs
Sequence (P61073 whole entry): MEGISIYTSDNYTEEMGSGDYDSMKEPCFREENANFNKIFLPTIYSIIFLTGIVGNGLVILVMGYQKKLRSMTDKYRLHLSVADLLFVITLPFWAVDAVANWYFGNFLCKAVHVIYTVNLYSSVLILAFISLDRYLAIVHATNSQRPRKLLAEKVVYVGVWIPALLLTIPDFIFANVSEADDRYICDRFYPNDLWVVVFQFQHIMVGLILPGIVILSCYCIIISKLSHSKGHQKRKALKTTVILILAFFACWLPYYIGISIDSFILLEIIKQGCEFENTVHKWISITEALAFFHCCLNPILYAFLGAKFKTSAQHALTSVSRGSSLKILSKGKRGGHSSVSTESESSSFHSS
Please note pIC50 is a logarithmic value: minus log10 of concentration in mol/L. Answer with that number alone.

N[C@H]1CC[C@H](N(C[C@H]2Cc3ccccc3CN2)[C@H]2CCCc3cccnc32)CC1; 7.47
NCC1CC1CN(C[C@H]1Cc2ccccc2CN1)[C@H]1CCCc2cccnc21 (single isomer, unassigned; diastereomer 2); 7.89
C/C(=C/CN(C[C@H]1Cc2ccccc2CN1)[C@H]1CCCc2cccnc21)CN; 8.07

I am curious: what pIC50 value has been reported for C/C(CN)=C(/F)CN(C[C@H]1Cc2ccccc2CN1)[C@H]1CCCc2cccnc21 ?
7.36

---

assay: Metabolic stability in human liver microsomes assessed as parent compound remaining; format: ADME, microsome; also: time not given here
Reported Stability by item:
State just the number; it will be interpreted in %.

These recorded examples may help you get a feel for the data.
NCC1CC1CN(C[C@H]1Cc2ccccc2CN1)[C@H]1CCCc2cccnc21 (single isomer, unassigned; diastereomer 1); 100
C/C(CN)=C(\F)CN(C[C@H]1Cc2ccccc2CN1)[C@H]1CCCc2cccnc21; 100
C/C(CN(C[C@H]1Cc2ccccc2CN1)[C@H]1CCCc2cccnc21)=C(/F)CN; 35
N[C@H]1CC[C@H](N(C[C@H]2Cc3ccccc3CN2)[C@H]2CCCc3cccnc32)CC1; 95
N[C@H]1CC[C@@H](N(C[C@H]2Cc3ccccc3CN2)[C@H]2CCCc3cccnc32)CC1; 86
C/C(=C/CN)CN(C[C@H]1Cc2ccccc2CN1)[C@H]1CCCc2cccnc21; 96
C/C(=C/CN(C[C@H]1Cc2ccccc2CN1)[C@H]1CCCc2cccnc21)CN; 100
NC/C=C\CN(C[C@H]1Cc2ccccc2CN1)[C@H]1CCCc2cccnc21; 100

In the following, a different compound is considered.
I am curious: what Stability value has been reported for C/C(CN(C[C@H]1Cc2ccccc2CN1)[C@H]1CCCc2cccnc21)=C(\F)CN ?
51

---

These records show pIC50 for Cytochrome P450 3A4 (Homo sapiens, UniProt P08684).
pIC50: −log10 of the molar value.

I am curious: what pIC50 value has been reported for C/C(CN)=C(/F)CN(C[C@H]1Cc2ccccc2CN1)[C@H]1CCCc2cccnc21 ?
5.62

What do you have for N[C@H]1CC[C@@H](N(C[C@H]2Cc3ccccc3CN2)[C@H]2CCCc3cccnc32)CC1 ?
< 4.70

What do you have for C/C(=C/CN(C[C@H]1Cc2ccccc2CN1)[C@H]1CCCc2cccnc21)CN ?
< 4.70

What do you have for N[C@H]1CC[C@H](N(C[C@H]2Cc3ccccc3CN2)[C@H]2CCCc3cccnc32)CC1 ?
< 4.70

What do you have for C/C(CN(C[C@H]1Cc2ccccc2CN1)[C@H]1CCCc2cccnc21)=C(/F)CN ?
5.74

What do you have for C/C(=C/CN)CN(C[C@H]1Cc2ccccc2CN1)[C@H]1CCCc2cccnc21 ?
< 4.70

---

target: Muscarinic acetylcholine receptor M3 (Homo sapiens); assay: Antagonist activity at mAChR M3 in human CCRF-CEM cells assessed as inhibition of acetylcholine-mediated calcium flux incubated for 25 mins followed by acetylcholine stimulation measured for 90 secs; type: functional, cell-based
Sequence (P20309 whole entry): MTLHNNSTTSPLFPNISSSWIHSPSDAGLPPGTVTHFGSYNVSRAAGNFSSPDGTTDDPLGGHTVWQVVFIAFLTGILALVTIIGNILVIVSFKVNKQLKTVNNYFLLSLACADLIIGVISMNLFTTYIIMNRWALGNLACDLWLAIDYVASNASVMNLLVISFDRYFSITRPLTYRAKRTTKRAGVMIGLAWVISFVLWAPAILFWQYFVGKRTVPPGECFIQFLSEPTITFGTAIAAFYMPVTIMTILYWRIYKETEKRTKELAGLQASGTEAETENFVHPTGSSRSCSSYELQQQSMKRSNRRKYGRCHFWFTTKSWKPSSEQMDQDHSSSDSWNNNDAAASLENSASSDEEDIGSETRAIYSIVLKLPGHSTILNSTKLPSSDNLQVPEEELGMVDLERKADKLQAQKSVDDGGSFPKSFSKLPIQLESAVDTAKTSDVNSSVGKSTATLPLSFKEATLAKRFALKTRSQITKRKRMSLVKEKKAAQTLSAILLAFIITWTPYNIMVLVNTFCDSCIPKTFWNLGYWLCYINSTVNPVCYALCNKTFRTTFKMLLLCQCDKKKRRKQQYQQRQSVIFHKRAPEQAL
Reported log10 of IC50 by item:
Hey, these are logged values: log10 of IC50, µM being the unit before logging.

These recorded examples may help you get a feel for the data.
C/C(=C/CN)CN(C[C@H]1Cc2ccccc2CN1)[C@H]1CCCc2cccnc21; 0.04
C/C(=C/CN(C[C@H]1Cc2ccccc2CN1)[C@H]1CCCc2cccnc21)CN; -1.49
C/C(CN)=C(/F)CN(C[C@H]1Cc2ccccc2CN1)[C@H]1CCCc2cccnc21; 0.94

I am curious: what log10 of IC50 value has been reported for C/C(CN(C[C@H]1Cc2ccccc2CN1)[C@H]1CCCc2cccnc21)=C(\F)CN ?
0.98

What do you have for C/C(CN)=C(\F)CN(C[C@H]1Cc2ccccc2CN1)[C@H]1CCCc2cccnc21 ?
-0.11

What do you have for FC1(F)CCC(NC/C=C\CN(C[C@H]2Cc3ccccc3CN2)[C@H]2CCCc3cccnc32)CC1 ?
1.04

---

assay: Metabolic stability in mouse liver microsomes assessed as parent compound remaining; format: ADME, microsome; also: time not given here
Reported Stability by item:

These recorded examples may help you get a feel for the data.
C/C(CN)=C(\F)CN(C[C@H]1Cc2ccccc2CN1)[C@H]1CCCc2cccnc21; 2%
FC1(F)CCC(NC/C=C\CN(C[C@H]2Cc3ccccc3CN2)[C@H]2CCCc3cccnc32)CC1; 3%
C/C(CN)=C(/F)CN(C[C@H]1Cc2ccccc2CN1)[C@H]1CCCc2cccnc21; 61%

I am curious: what Stability value has been reported for NCC1=C(CN(C[C@H]2Cc3ccccc3CN2)[C@H]2CCCc3cccnc32)CCCC1 ?
2%

---

target: Cytochrome P450 2D6 (Homo sapiens, UniProt P10635); assay: Inhibition of recombinant human CYP2D6 expressed in insect microsomes using AMMC as substrate preincubated for 30 mins followed by NADPH addition measured after 45 mins by fluorescence assay
Sequence (P10635 whole entry): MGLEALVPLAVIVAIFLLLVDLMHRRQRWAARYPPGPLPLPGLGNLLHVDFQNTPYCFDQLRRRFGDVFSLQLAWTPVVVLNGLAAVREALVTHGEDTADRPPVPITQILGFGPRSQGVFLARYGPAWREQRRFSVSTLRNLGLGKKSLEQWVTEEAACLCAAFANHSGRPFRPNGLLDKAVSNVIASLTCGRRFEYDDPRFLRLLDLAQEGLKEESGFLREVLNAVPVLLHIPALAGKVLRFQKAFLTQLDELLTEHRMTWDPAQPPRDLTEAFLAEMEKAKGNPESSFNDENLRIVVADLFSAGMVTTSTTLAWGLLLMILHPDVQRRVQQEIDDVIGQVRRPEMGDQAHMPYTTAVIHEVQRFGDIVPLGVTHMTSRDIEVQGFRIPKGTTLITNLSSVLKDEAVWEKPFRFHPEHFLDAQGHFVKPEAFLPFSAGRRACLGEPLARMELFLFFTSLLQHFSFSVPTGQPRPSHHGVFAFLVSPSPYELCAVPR
pIC50: −log10 of the molar value.
So basically: pIC50 at 6 or higher? That is y. Lower than 6? That is n.

As a guide, the following entries are already answered.
C/C(=C/CN(C[C@H]1Cc2ccccc2CN1)[C@H]1CCCc2cccnc21)CN; y
NC[C@H]1CC[C@H](CN(C[C@H]2Cc3ccccc3CN2)[C@H]2CCCc3cccnc32)CC1; n
FC1(F)CCC(NC/C=C\CN(C[C@H]2Cc3ccccc3CN2)[C@H]2CCCc3cccnc32)CC1; y
N[C@H]1CC[C@@H](N(C[C@H]2Cc3ccccc3CN2)[C@H]2CCCc3cccnc32)CC1; y
C/C(CN(C[C@H]1Cc2ccccc2CN1)[C@H]1CCCc2cccnc21)=C(\F)CN; y

Threshold query (pIC50 >= 6) on N[C@H]1CC[C@H](N(C[C@H]2Cc3ccccc3CN2)[C@H]2CCCc3cccnc32)CC1
n

What do you have for NCC1CC1CN(C[C@H]1Cc2ccccc2CN1)[C@H]1CCCc2cccnc21 (single isomer, unassigned; diastereomer 1) ?
y

What do you have for C/C(CN(C[C@H]1Cc2ccccc2CN1)[C@H]1CCCc2cccnc21)=C(/F)CN ?
y
